Where these numbers come from: PubChem BioAssay (NCI)

# System: SR leukemia
# method.description: NCI tumour cell line growth inhibition, 48 h

- compound: "COC(=O)C1=C(C)NC2=C(C(=O)c3ccccc32)C1c1cn[nH]c1-c1ccccc1 (stereo not drawn)"
  TGI: "87.4 µM"
- compound: "O=C(O)c1c[nH]c2c(ccc3[nH]cc(C(=O)O)c(=O)c32)c1=O"
  TGI: "> 100 µM"
- compound: "Cc1ccnc(NC(c2ccccc2)c2ccc3cccnc3c2O)c1 (stereo not drawn)"
  TGI: "> 100 µM"
- compound: "O=C1C(=Cc2ccc([N+](=O)[O-])o2)C(=O)N(CCc2ccccc2)S(=O)(=O)N1CCc1ccccc1"
  TGI: "38.4 µM"
- compound: "O=C1c2ccccc2-c2ccccc2C1(Cl)Cl"
  TGI: "8.71 µM"
- compound: "O=[N+]([O-])c1ccc2c(N=Nc3ccc4ccccc4c3O)c(O)cc(S(=O)(=O)O)c2c1"
  TGI: "> 69.4 µM"
- compound: "O=C1CCCCCCCCCCOC(=O)CCCCCCCCCCO1"
  TGI: "> 100 µM"
- compound: "CP(=O)(O)C(N)c1ccccc1 (stereo not drawn)"
  TGI: "> 100 µM"
- compound: "CCOC(=O)Nc1cc(-c2ccc(C)c(NS(C)(=O)=O)c2)nn2c(C)nnc12"
  TGI: "> 100 µM"
- compound: "O=c1cc(NNc2cccc(F)c2)[nH]c(=S)[nH]1"
  TGI: "> 100 µM"
- compound: "Clc1ccc(Nc2ncnc3c2sc2ncccc23)c(Cl)c1"
  TGI: "> 100 µM"
- compound: "CC(=O)Nc1ccc(C(=O)n2[nH]c(C)c(/C=C3\\C(=O)C=Cc4ccccc43)c2=O)cc1"
  TGI: "> 100 µM"
- compound: "Nc1nc(-c2ccc3ccccc3c2)cc(-c2cc(-c3ccc4ccccc4c3)nc(N)n2)n1"
  TGI: "> 100 µM"
- compound: "CC1(C)OC2OC(C(=O)c3ccccc3)C3OC(C)(C)OC3C2O1 (stereo not drawn)"
  TGI: "> 100 µM"
- compound: "C=CNC(=S)n1nc(-c2ccccc2NC(=O)C(F)(F)F)c(=O)n(C(=S)NC=C)c1=S"
  TGI: "73.7 µM"
- compound: "COc1ccc(C2NC3=C(CCCC3)N2)cc1"
  TGI: "> 100 µM"
- compound: "NNc1ncnc2cccc(Cl)c12"
  TGI: "> 100 µM"
- compound: "CC(=O)Nc1ccc(Cc2ccc3[nH]c(=O)cc(C)c3c2)cc1"
  TGI: "> 100 µM"
- compound: "O=C1[C@H](O)[C@@H]2CCC[C@@]23CCCN13"
  TGI: "> 100 µM"
- compound: "O=C1NC2OC(CO)C(O)C(O)C2O1 (stereo not drawn)"
  TGI: "> 100 µM"
- compound: "CSCC(COC(C)=O)(CSC)c1ccncc1"
  TGI: "> 100 µM"
- compound: "CC(C)(CO)NC(=O)c1cccs1"
  TGI: "> 100 µM"
- compound: "Oc1[nH]c2ccccc2c1/C=c1/ccc2c(c1)N=C(c1cc(F)cc(F)c1)N=2"
  TGI: "9.21 µM"
- compound: "CCOC(=O)CP(=S)(S)c1ccccc1 (stereo not drawn)"
  TGI: "> 100 µM"
- compound: "NC(CS)C(=O)NCCNc1ccc(NCCNC(=O)C(N)CS)c2c1C(=O)c1c(O)ccc(O)c1C2=O (stereo not drawn)"
  TGI: "0.232 µM"
- compound: "CCOC(=O)[C@H](CO)Nc1c(O)c2c(c(O)c1Cl)C(=O)C=CC2=O"
  TGI: "> 10 µM"
- compound: "O=C1C(c2c(O)[nH]c3ccc(I)cc23)=Nc2ccccc21"
  TGI: "> 100 µM"
- compound: "Cc1cc2c(cc1-c1cc3c(cc1C)C(C(C)C)=C(O)C(=O)/C3=C\\Nc1ccccn1)/C(=C/Nc1ccccn1)C(=O)C(O)=C2C(C)C"
  TGI: "> 100 µM"
- compound: "CC1(C)OC2[C@@H](CO[C@@]3([C@H]4OC(C)(C)O[C@@H]4CO)OC(C)(C)O[C@@H]23)O1 (stereo partly drawn)"
  TGI: "> 100 µM"
- compound: "CC(=O)OC12OC(C)(C3C(=O)N(c4ccccc4)C(=O)C31)N(c1ccccc1)C2=O (stereo not drawn)"
  TGI: "> 100 µM"
- compound: "O=Cc1cn(S(=O)(=O)c2ccccc2)c2ccccc12"
  TGI: "67.1 µM"
- compound: "O=C(O)C1C2CCC(O2)C1C(=O)NCc1cccnc1 (stereo not drawn)"
  TGI: "> 100 µM"
- compound: "COC(=O)CN(CC1O[C@@H]2OC(C)(C)O[C@@H]2C1NC(C)=O)C(=O)OCc1ccccc1 (stereo partly drawn)"
  TGI: "> 100 µM"
- compound: "O=C(NCCCc1cn[nH]c(=O)n1)c1cccc2nc3ccccc3nc12"
  TGI: "> 100 µM"
- compound: "CC(=O)CC12NC(=O)N(C)N=C1N(C)C(=O)N(C)C2=O (stereo not drawn)"
  TGI: "> 100 µM"
- compound: "COC(=O)Cc1nn2c(nc1=O)sc1ccc3ccccc3c12"
  TGI: "> 100 µM"
- compound: "CCN(CCN(CC)C(=O)NC)C(=O)NC"
  TGI: "> 100 µM"
- compound: "N/C(=N\\C(N)=N\\c1nc2ccccc2s1)c1ccnc(Br)c1"
  TGI: "> 100 µM"
- compound: "Cc1ccc(Cc2n[nH]c(=O)n2N2C(=O)c3ccccc3C2=O)cc1"
  TGI: "> 100 µM"
- compound: "CCOC(=O)C1=C(C)N(c2ccc(Cl)cc2)C2(O)C=CC(Nc3ccc(Cl)cc3)=C3C(=O)N(c4ccccc4)C(=O)C312 (stereo not drawn)"
  TGI: "> 100 µM"
- compound: "COc1ccc2c(c1)C(=O)c1c-2c(OCCN2CCCCC2)nc2ccc(OC)cc12"
  TGI: "1.25 µM"
- compound: "CS(=O)(=O)c1ccc(-c2cnc(NCc3ccco3)n3cnnc23)cc1"
  TGI: "> 100 µM"
- compound: "O=C(c1ccccc1)c1c2n(c3c1cc(O)c1ccccc13)CCN2"
  TGI: "3.46 µM"

====

# Test system: OVCAR-8 ovarian
# method.description: NCI tumour cell line growth inhibition, 48 h
assay.readout: TGI

- compound: "NCCN(CCN)/[N+]([O-])=N/O"
  assay.readout: "TGI"
  observed.value: "> 100 µM"
- compound: "COC(=O)[C@@H](NC(=O)c1ccc(CNC(=O)/C(C)=C/c2ccccc2)cc1)C(C)C"
  assay.readout: "TGI"
  observed.value: "> 100 µM"
- compound: "Clc1ccc(Nc2nnc(CNc3ccc(-c4nnc(Nc5ccc(Cl)cc5)o4)cc3)o2)cc1"
  assay.readout: "TGI"
  observed.value: "25.7 µM"
- compound: "CN(C)CCOc1ccc2[nH]c(C(=O)N3CC(CCl)c4ccc(N)cc43)cc2c1 (stereo unspecified)"
  assay.readout: "TGI"
  observed.value: "> 35.8 µM"
- compound: "COc1cc(/C=C2\\CC3C4CCC5=CC(=O)CC[C@]5(C)C4CC[C@]3(C)C2=O)ccc1OCCN1CCCCC1 (stereo partly specified)"
  assay.readout: "TGI"
  observed.value: "62.5 µM"
- compound: "Cc1ccc(O)cc1 (tested in a mixture with another compound)"
  assay.readout: "TGI"
  observed.value: "> 100 µM"
- compound: "COc1ccccc1[C@@H]1CCC2CC[C@@H](c3ccccc3OC)[N+]21Cc1ccccc1 (stereo partly specified)"
  assay.readout: "TGI"
  observed.value: "13.8 µM"
- compound: "O=C(NCCC1CN(S(=O)(=O)C(F)(F)F)c2ccccc21)OCc1ccccc1 (stereo unspecified)"
  assay.readout: "TGI"
  observed.value: "> 100 µM"
- compound: "CC(C)(CO)NC(=O)c1cccs1"
  assay.readout: "TGI"
  observed.value: "> 100 µM"
- compound: "COc1cc2oc(-c3ccc(O)cc3)cc(=O)c2c(OC)c1O"
  assay.readout: "TGI"
  observed.value: "> 100 µM"
- compound: "CP(=O)(O)C(N)c1ccccc1 (stereo unspecified)"
  assay.readout: "TGI"
  observed.value: "> 100 µM"

====

# Tested on: SK-OV-3 ovarian
# method.description: NCI tumour cell line growth inhibition, 48 h
assay.readout: TGI (µM)

- molecule: "COC(=O)C1=C(C)NC2=C(C(=O)c3ccccc32)C1c1cn[nH]c1-c1ccccc1 (centres undefined)"
  system.under.test: "SK-OV-3 ovarian"
  units: "µM"
  bound.sign: ">"
  observed.value: 100
- molecule: "COc1ccc(C2NC3=C(CCCC3)N2)cc1"
  system.under.test: "SK-OV-3 ovarian"
  units: "µM"
  bound.sign: ">"
  observed.value: 100
- molecule: "Cc1ccc(O)cc1 (tested in a mixture with another compound)"
  system.under.test: "SK-OV-3 ovarian"
  units: "µM"
  bound.sign: ">"
  observed.value: 100
- molecule: "COC1/C=C/OC2(C)Oc3c(C)c(O)c4c(O)c(c(C=NOC(c5ccccc5)c5ccccc5)c(O)c4c3C2=O)NC(=O)/C(C)=C/C=C/C(C)C(O)C(C)C(O)C(C)C(OC(C)=O)C1C (centres undefined)"
  system.under.test: "SK-OV-3 ovarian"
  units: "µM"
  bound.sign: "="
  observed.value: 6.67
- molecule: "O=C1C(c2c(O)[nH]c3ccc(I)cc23)=Nc2ccccc21"
  system.under.test: "SK-OV-3 ovarian"
  units: "µM"
  bound.sign: "="
  observed.value: 22.8
- molecule: "O=C1C(Cl)C(c2ccc([N+](=O)[O-])cc2)N1n1cnc2ccccc2c1=O (centres undefined)"
  system.under.test: "SK-OV-3 ovarian"
  units: "µM"
  bound.sign: "="
  observed.value: 50.3
- molecule: "COc1cc(/C=C2\\CC3C4CCC5=CC(=O)CC[C@]5(C)C4CC[C@]3(C)C2=O)ccc1OCCN1CCCCC1 (some centres undefined)"
  system.under.test: "SK-OV-3 ovarian"
  units: "µM"
  bound.sign: "="
  observed.value: 48.7
- molecule: "COc1ccc(Oc2nc3c(N)cc(C(F)(F)F)cc3nc2-c2ccccc2)cc1"
  system.under.test: "SK-OV-3 ovarian"
  units: "µM"
  bound.sign: "="
  observed.value: 43.7
- molecule: "CN(CC1NCCCC1O)C12CC3CC(CC(C3)C1)C2 (centres undefined)"
  system.under.test: "SK-OV-3 ovarian"
  units: "µM"
  bound.sign: ">"
  observed.value: 100
